target: KRas wild type (Homo sapiens); test: Ras GTP binding domain inhibition assay (labeled-GTP competition, cell-free); set-up: made in house; settings: with SOS, read-out: KRas wild type + SOS: % inh.
Hi there, I'd appreciate the recorded inhibition at 20 µM for every entry that follows.

What does the data say about its inhibition at 20 µM? Entry: CO[C@H]1CC[C@@H](Nc2nc(-c3nccn3C)nc3sc(-c4cn(C)cn4)c(-c4ccccc4)c23)C1 (racemic) [Example 3]
76 to 100%

What does the data say about its inhibition at 20 µM? Entry: CO[C@H]1C[C@H](CNc2nc(-c3nccn3C)nc3sc(-c4ccn(C(C)C)n4)c(C)c23)C1 [Compound 48]
51 to 75%

What does the data say about its inhibition at 20 µM? Entry: COC1CCCN(c2nc(-c3nccn3C)nc3sc(-c4ccn(C(C)C)n4)c(-c4ccccc4)c23)C1 (racemic) [Compound 77]
26 to 50%

What does the data say about its inhibition at 20 µM? Entry: Oc1nc(-c2ccncn2)nc2c(-c3ccccn3)csc12 [Compound 88]
1 to 25%

What does the data say about its inhibition at 20 µM? Entry: CO[C@H]1CC[C@@H](Nc2nc(C(=O)N3CCCC3)nc3sccc23)C1 (racemic) [Compound 25]
0%

What does the data say about its inhibition at 20 µM? Entry: CO[C@H]1CCCN(c2nc(-c3nccn3C)nc3sc(-c4ccn(C(C)C)n4)c(C)c23)C1 [Compound 49]
76 to 100%

----------
Molecular target: KRas wild type (Homo sapiens, UniProt P01116)
Test: Scintillation Proximity Assay (SPA) GTP affinity
Details: read-out: SPA GTP affinity for binding domain
Text: As disclosed in International Application No. PCT/US2018/038613 and U.S. patent application Ser. No. 16/013,872, the affinity of GTP for the GTP binding domain of K-Ras utilizing a Scintillation Proximity Assay (SPA) and MicroScale Thermophoresis (MST) has been measured. These methods were not available when Wittinghofer and colleagues undertook their studies. […]
test-readout: pKd
Please treat pKd as minus the base-10 logarithm of the molar concentration.

What does the data say about its pKd? Entry: `Nc1nc2c(ncn2[C@@H]2O[C@H](COP(=O)(O)OP(=O)(O)OP(=O)(O)O)[C@@H](O)[C@H]2O)c(=O)[nH]1`
6.61

----------
Molecular target: KRas Q61H mutant (Homo sapiens, UniProt P01116, Q61H)
Construct: made in house
Assay: Ras GTP binding domain inhibition assay (labeled-GTP competition, cell-free)
Details: at 20 μM, without SOS; read-out: KRas Q61H mutant: % inh.
Excerpt: This is a competitive binding assay. It involves the immobilization of a protein on solid phase, interaction with a small molecule drug candidate, and then competitive binding with a labeled native GTP or GDP ligand. […] The small GTPases proteins: KRas wild type. KRas Q61H mutant, KRas G12C mutant, KRas G12D mutants, Rac-1, and Rho-A were expressed as His-tagged proteins. In addition, the Guanosine nucleotide Exchange Factor (GEF) Sos protein (residues 556-1049) was expressed as a His-tagged protein. […]
test-readout: inhibition at 20 µM

Write down the reported inhibition at 20 µM of `COc1cccc(Nc2nc(-c3nccn3C)nc3sc(-c4ccn(C(C)C)n4)c(C)c23)c1` , test system: KRas Q61H mutant (Homo sapiens, UniProt P01116, Q61H).
26 to 50%

Write down the reported inhibition at 20 µM of `O=C(Nc1ccccc1)c1nc(O)c2scc(-c3ccccn3)c2n1` , test system: KRas Q61H mutant (Homo sapiens, UniProt P01116, Q61H).
0%

Write down the reported inhibition at 20 µM of `Cn1nccc1-c1nc(O)c2scc(-c3ccccn3)c2n1` , test system: KRas Q61H mutant (Homo sapiens, UniProt P01116, Q61H).
1 to 25%

Write down the reported inhibition at 20 µM of CO[C@@H]1CC[C@@H](Nc2nc(-c3nccn3C)nc3sc(-c4ccn(C(C)C)n4)c(C)c23)C1 (racemic) , test system: KRas Q61H mutant (Homo sapiens, UniProt P01116, Q61H).
76 to 100%

Write down the reported inhibition at 20 µM of CO[C@H]1CC[C@@H](Nc2nc(C(=O)N3CCCC3)nc3sccc23)C1 (racemic) , test system: KRas Q61H mutant (Homo sapiens, UniProt P01116, Q61H).
0%

Write down the reported inhibition at 20 µM of `COc1cccn2c(-c3nc(O)c4scc(-c5ccccn5)c4n3)ncc12` , test system: KRas Q61H mutant (Homo sapiens, UniProt P01116, Q61H).
26 to 50%

Write down the reported inhibition at 20 µM of `CO[C@H]1CC[C@H](Nc2nc(-c3nccn3C)nc3sc(-c4ccn(C(C)C)n4)c(C)c23)CC1` , test system: KRas Q61H mutant (Homo sapiens, UniProt P01116, Q61H).
51 to 75%

Write down the reported inhibition at 20 µM of `CO[C@H]1C[C@@H](CNc2nc(-c3nccn3C)nc3sc(-c4ccn(C(C)C)n4)c(C)c23)C1` , test system: KRas Q61H mutant (Homo sapiens, UniProt P01116, Q61H).
51 to 75%

Write down the reported inhibition at 20 µM of `CO[C@H]1CC[C@@H](Nc2nc(-c3nccn3C)nc3sc(-c4ccn(C(C)C)n4)c(-c4ccccc4)c23)C1` , test system: KRas Q61H mutant (Homo sapiens, UniProt P01116, Q61H).
26 to 50%

Write down the reported inhibition at 20 µM of CO[C@H]1CC[C@@H](Nc2nc(C(=O)NC(C)C)nc3sccc23)C1 (racemic) , test system: KRas Q61H mutant (Homo sapiens, UniProt P01116, Q61H).
0%

Write down the reported inhibition at 20 µM of `O=C(c1nc(O)c2scc(-c3ccccn3)c2n1)N1CCCC1` , test system: KRas Q61H mutant (Homo sapiens, UniProt P01116, Q61H).
1 to 25%

Write down the reported inhibition at 20 µM of `Cc1c(-c2ccn(C(C)C)n2)sc2nc(-c3nccn3C)nc(NCc3ncc[nH]3)c12` , test system: KRas Q61H mutant (Homo sapiens, UniProt P01116, Q61H).
26 to 50%

Write down the reported inhibition at 20 µM of `Cc1c(-c2ccn(C(C)C)n2)sc2nc(-c3nccn3C)nc(NCCc3nnn[nH]3)c12` , test system: KRas Q61H mutant (Homo sapiens, UniProt P01116, Q61H).
76 to 100%

Write down the reported inhibition at 20 µM of `COCCn1ccnc1-c1nc(N[C@H]2C[C@@H](OC)C2)c2c(-c3ccccc3)c(-c3ccn(C)n3)sc2n1` , test system: KRas Q61H mutant (Homo sapiens, UniProt P01116, Q61H).
76 to 100%

Write down the reported inhibition at 20 µM of CO[C@H]1CC[C@@H](Nc2nc(-c3nccn3C)nc3sccc23)C1 (racemic) , test system: KRas Q61H mutant (Homo sapiens, UniProt P01116, Q61H).
51 to 75%

Write down the reported inhibition at 20 µM of `Cc1cnc(-c2nc(O)c3scc(-c4ccccn4)c3n2)s1` , test system: KRas Q61H mutant (Homo sapiens, UniProt P01116, Q61H).
76 to 100%

----------
Hi there, I'd appreciate the recorded inhibition at 20 µM for every entry that follows.
target: Rho-A (Homo sapiens); assay: Ras GTP binding domain inhibition assay (labeled-GTP competition, cell-free); parameters: made in house; details: with SOS, read-out: Rho-A + SOS: % inh.

What does the data say about its inhibition at 20 µM? Entry: CO[C@H]1C[C@@H](Nc2nc(-c3nccn3C)nc3sc(-c4ccn(C(C)C)n4)c(C)c23)C[C@H]1OC [Compound 42]
76 to 100%

What does the data say about its inhibition at 20 µM? Entry: Cc1sc2c(O)nc(-c3ccccn3)nc2c1-c1ccccn1 [Compound 26]
76 to 100%

What does the data say about its inhibition at 20 µM? Entry: CO[C@@H]1CC[C@@H](Nc2nc(-c3nccn3C)nc3sc(-c4ccn(C(C)C)n4)c(C)c23)C1 (racemic) [Compound 33]
76 to 100%

What does the data say about its inhibition at 20 µM? Entry: COC1CCCN(c2nc(-c3nccn3C)nc3sc(-c4ccn(C(C)C)n4)c(C)c23)C1 (racemic) [Compound 40]
76 to 100%

What does the data say about its inhibition at 20 µM? Entry: COc1nc(-c2nccn2C)nc2c(-c3ncccc3F)csc12 [Compound 95]
76 to 100%

What does the data say about its inhibition at 20 µM? Entry: COCCNc1nc(-c2nccn2C)nc2sc(-c3ccn(C(C)C)n3)c(C)c12 [Compound 35]
76 to 100%

What does the data say about its inhibition at 20 µM? Entry: CO[C@H]1CC[C@@H](Nc2nc(C(=O)Nc3ccccn3)nc3sccc23)C1 (racemic) [Compound 16]
1 to 25%

What does the data say about its inhibition at 20 µM? Entry: NC(=O)c1nc(O)c2scc(-c3ccccn3)c2n1 [Compound 18]
26 to 50%

What does the data say about its inhibition at 20 µM? Entry: O=C(c1nc(O)c2scc(-c3ccccn3)c2n1)N1CCCC1 [Compound 19]
26 to 50%

What does the data say about its inhibition at 20 µM? Entry: COCCCNc1nc(-c2nccn2C)nc2sc(-c3ccn(C(C)C)n3)c(C)c12 [Compound 36]
76 to 100%

What does the data say about its inhibition at 20 µM? Entry: COCCNC(=O)c1nc(N[C@@H]2CC[C@H](OC)C2)c2ccsc2n1 (racemic) [Compound 14]
1 to 25%

What does the data say about its inhibition at 20 µM? Entry: CO[C@H]1C[C@@H](Nc2nc(-c3nccn3C)nc3sc(-c4cn(C)cn4)c(-c4ccccc4)c23)C1 [Example 2]
76 to 100%

What does the data say about its inhibition at 20 µM? Entry: CO[C@H]1C[C@H](Nc2nc(-c3nccn3C)nc3sc(-c4ccn(C(C)C)n4)c(C)c23)C[C@H]1OC [Compound 43]
76 to 100%

What does the data say about its inhibition at 20 µM? Entry: Oc1nc(-c2ccccn2)nc2c(-c3ncccc3F)csc12 [Compound 27]
76 to 100%

What does the data say about its inhibition at 20 µM? Entry: COCCn1ccnc1-c1nc(N[C@@H]2CC[C@H](OC)C2)c2ccsc2n1 (racemic) [Compound 8]
76 to 100%

What does the data say about its inhibition at 20 µM? Entry: CO[C@H]1C[C@@H](CNc2nc(-c3nccn3C)nc3sc(-c4ccn(C(C)C)n4)c(C)c23)C1 [Compound 47]
76 to 100%

What does the data say about its inhibition at 20 µM? Entry: CO[C@H]1CC[C@@H](Nc2nc(C(N)=O)nc3sccc23)C1 (racemic) [Compound 11]
1 to 25%
